Read-out: Monocyte Chemoattractant Protein-1 (MCP1), CCL2 (gene 6347)
ASSAY_REMARKS: BSK_LPS_MCP1: BioMAP Diversity Plus: LPS Assay for Monocyte Chemoattractant Protein-1 (MCP1) Biomarker Activity (AID 2283081)
CONDITION_SET: primary human HUVEC with PBMC; actives raise or lower the signal
Activity calls are given as the source filed them. The calls were made as follows: active = hit-call score of the fitted dose curve at least 0.9, where 1 is the maximum; inactive = score below 0.9.
ENDPOINT_LABEL: outcome

INSERT INTO results (smiles_text, endpoint_label, data_value) VALUES
  ('C[C@@H](Oc1ccc(CNC(=O)c2cccnc2Oc2ccc3c(c2)OCO3)c(F)c1)C(=O)O', 'outcome', 'inactive'),
  ('O=S1(=O)CCCO1', 'outcome', 'inactive'),
  ('S=P(N1CC1)(N1CC1)N1CC1', 'outcome', 'inactive');

* * *

ASSAY_REMARKS: APR_HepG2_p53Act_72hr: Apredica 72-hour HepG2 Assay for p53 Activation (AID 2282923);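 also: average cellular p53 protein immunofluorescence intensity in HepG2 cells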
CONDITION_SET: high-content imaging, actives raise or lower the signal
Calls of active or inactive are those of the source. The calls were made as follows: active = hit-call score of the fitted dose curve at least 0.9, where 1 is the maximum; inactive = score below 0.9.
ENDPOINT_LABEL: AC50

INSERT INTO results (smiles_text, data_value) VALUES
  ('OC(CCl)CCl', 'inactive'),
  ('CC(C)c1nnc2ccc(-c3ocnc3-c3cc(F)ccc3F)cn12', 'inactive'),
  ('CC(=O)c1ccccc1', 'inactive'),
  ('C[C@]12C=CC(=O)C=C1CC[C@H]1[C@@H]3C[C@@H](O)[C@](O)(C(=O)CO)[C@@]3(C)C[C@H](O)[C@@]12F', 'inactive'),
  ('CCc1ccc(O)c(C(C)(C)C)c1', '71.6 µM (active)');

Fill blank: measured AC50 of the molecule O=C(O)c1ccc2c(c1)nc(C(=O)NC1CCN(C3CC3)CC1)n2Cc1cc(-c2ccc(Cl)s2)on1 is ____. inactive

Fill blank: measured AC50 of the molecule Cn1cc[nH]c1=S is ____. inactive

Fill blank: measured AC50 of the molecule CCCCCCCCCCCCCCO is ____. 104 µM (active)

Fill blank: measured AC50 of the molecule CCCCN1C(=O)[C@@H]([C@H](O)C2CCCCC2)NC(=O)C12CCN(Cc1ccc(Oc3ccc(C(=O)O)cc3)cc1)CC2 is ____. 38.7 µM (active)

Fill blank: measured AC50 of the molecule NC(=O)NN=Cc1ccc([N+](=O)[O-])o1 is ____. 67.3 µM (active)

Fill blank: measured AC50 of the molecule O=C1CN(N=Cc2ccc([N+](=O)[O-])o2)C(=O)N1 is ____. 46.8 µM (active)

Fill blank: measured AC50 of the molecule CCCCOC(=O)c1ccccc1 is ____. inactive

* * *

Read-out: Tissue Factor, F3 (gene 2152)
ASSAY_REMARKS: BSK_LPS_TissueFactor: BioMAP Diversity Plus: LPS Assay for Tissue Factor Biomarker Activity (AID 2283084)
CONDITION_SET: primary human HUVEC with PBMC; actives raise or lower the signal
Calls of active or inactive are those of the source. The calls were made as follows: active = hit-call score of the fitted dose curve at least 0.9, where 1 is the maximum; inactive = score below 0.9.
ENDPOINT_LABEL: outcome

INSERT INTO results (smiles_text, data_value) VALUES
  ('Cc1ccc(S(=O)(=O)NC(=O)NN2CCCCCC2)cc1', 'inactive'),
  ('C=CN1CCCC1=O', 'inactive'),
  ('CCCCCCOC(=O)CC(CC(=O)OCCCCCC)(OC(=O)CCC)C(=O)OCCCCCC', 'inactive'),
  ('CCc1ccc(O)c(C(C)(C)C)c1', 'inactive'),
  ('FC(F)(F)C(F)(F)C(F)(F)C(F)(F)C(F)(F)C(F)(F)I', 'inactive'),
  ('NNC(=O)c1ccncc1', 'inactive');

Fill blank: measured outcome of the compound NCC(F)(F)C(F)(F)C(F)(F)C(F)(F)F is ____. inactive

Fill blank: measured outcome of the compound O=C(O)c1ccc2c(c1)nc(C(=O)NC1CCN(C3CC3)CC1)n2Cc1cc(-c2ccc(Cl)s2)on1 is ____. inactive

Fill blank: measured outcome of the compound CCn1nc(C)c2c1C(=O)NCC(c1ccc(O)cc1)=N2 is ____. inactive

Fill blank: measured outcome of the compound CCCCN1C(=O)[C@@H]([C@H](O)C2CCCCC2)NC(=O)C12CCN(Cc1ccc(Oc3ccc(C(=O)O)cc3)cc1)CC2 is ____. inactive

Fill blank: measured outcome of the compound O=S(=O)(O)CCC(F)(F)C(F)(F)C(F)(F)C(F)(F)C(F)(F)C(F)(F)F is ____. inactive
